- Test system: HUVEC/MSC spheroids viability
- experiment_notes: Human HUVEC/MSC cell line growth inhibition [KRAS2]
- particulars: curve of compound
Entries annotated with measured IC50

// below: answered molecules
| molecule | IC50 |
| --- | --- |
| CC1(C)CCC(CN2CCN(c3ccc(C(=O)NS(=O)(=O)c4ccc(NCC5CCOCC5)c([N+](=O)[O-])c4)c(Oc4cnc5[nH]ccc5c4)c3)CC2)=C(c2ccc(Cl)cc2)C1 | 4.56 µM [middle of 4 runs] |
| CC1OCC2(CCN(c3cnc(Sc4ccnc(N)c4Cl)c(N)n3)CC2)C1N (stereo unspecified) | > 10 µM |
| CCN1CCN(Cc2ccc(Nc3ncc(F)c(-c4cc(F)c5nc(C)n(C(C)C)c5c4)n3)nc2)CC1 | > 1 µM |
| CC(=O)Nc1cccc(-n2c(=O)n(C3CC3)c(=O)c3c(Nc4ccc(I)cc4F)n(C)c(=O)c(C)c32)c1 | 14.7 nM [middle of 5 runs] |
| CN(C)C/C=C/C(=O)Nc1cc2c(Nc3ccc(F)c(Cl)c3)ncnc2cc1O[C@H]1CCOC1 | > 0.1 µM |

Then this molecule:
Any idea what its IC50 is? The molecule is CCNC(=O)CC1N=C(c2ccc(Cl)cc2)c2cc(OC)ccc2-n2c(C)nnc21 (stereo unspecified)
> 10 µM

* * *

- Tested on: HUVEC/MSC spheroids viability
- experiment_notes: Human HUVEC/MSC cell line growth inhibition [KRAS2];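 for viability, T/C: percent of DMSO vehicle control luminescence so 100% = untreated viability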
- particulars: second compound 0.0316 µM; first compound 0.0003 µM; stronger effect = lower value
viability, T/C by entry:
Field format: number, assumed %, no unit text.

| compound | readout_units | viability, T/C |
| --- | --- | --- |
| CC(=O)Nc1cccc(-n2c(=O)n(C3CC3)c(=O)c3c(Nc4ccc(I)cc4F)n(C)c(=O)c(C)c32)c1 + CNCc1ccccc1-c1csc(C(C)Nc2nc(C)nc3cc(OC)c(OC)cc23)c1 | % | 130 |
| CC(=O)Nc1cccc(-n2c(=O)n(C3CC3)c(=O)c3c(Nc4ccc(I)cc4F)n(C)c(=O)c(C)c32)c1 + CC1OCC2(CCN(c3cnc(Sc4ccnc(N)c4Cl)c(N)n3)CC2)C1N | % | 142 |
| CC(=O)Nc1cccc(-n2c(=O)n(C3CC3)c(=O)c3c(Nc4ccc(I)cc4F)n(C)c(=O)c(C)c32)c1 + C=CC(=O)N1CCN(c2nc(=O)n(-c3c(C)ccnc3C(C)C)c3nc(-c4c(O)cccc4F)c(F)cc23)C(C)C1 | % | 140 |

Look up viability, T/C for this compound: CC(=O)Nc1cccc(-n2c(=O)n(C3CC3)c(=O)c3c(Nc4ccc(I)cc4F)n(C)c(=O)c(C)c32)c1 + COc1cc2nc(C)nc(NC(C)c3cc(N)cc(C(F)(F)F)c3)c2cc1OC1CCOC1
124

* * *

Below, each entry is listed with its recorded viability, T/C.
- Test system: HUVEC/MSC spheroids viability
- experiment_notes: Human HUVEC/MSC cell line growth inhibition [KRAS2];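 for viability, T/C: percent of DMSO vehicle control luminescence so 100% = untreated viability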
- particulars: second compound 0.03 µM; first compound 0.316 µM; stronger effect = lower value
Numbers only; they are read as %.

Lookup: viability, T/C / HUVEC/MSC spheroids viability / CC(C)NCC(C(=O)N1CCN(c2ncnc3c2C(C)CC3O)CC1)c1ccc(Cl)cc1 (stereo not given) + C=CC(=O)N1CCN(c2nc(OCC3CCCN3C)nc3c2CCN(c2cccc4cccc(C)c24)C3)CC1CC#N
94.8

And what about the compound COc1cc2nccc(Oc3ccc(NC(=O)C4(C(=O)Nc5ccc(F)cc5)CC4)cc3)c2cc1OC + C=CC(=O)N1CCN(c2nc(OCC3CCCN3C)nc3c2CCN(c2cccc4cccc(C)c24)C3)CC1CC#N ?
77.1

Also O=C(c1cc(Cc2n[nH]c(=O)c3ccccc23)ccc1F)N1CCN(C(=O)C2CC2)CC1 + C=CC(=O)N1CCN(c2nc(OCC3CCCN3C)nc3c2CCN(c2cccc4cccc(C)c24)C3)CC1CC#N ?
98.7

// same read-out, input: CC1OCC2(CCN(c3cnc(Sc4ccnc(N)c4Cl)c(N)n3)CC2)C1N (stereo not given) + C=CC(=O)N1CCN(c2nc(OCC3CCCN3C)nc3c2CCN(c2cccc4cccc(C)c24)C3)CC1CC#N
89.8

Queued: COC(=O)c1ccc2c(C(=Nc3ccc(N(C)C(=O)CN4CCN(C)CC4)cc3)c3ccccc3)c(O)[nH]c2c1 + C=CC(=O)N1CCN(c2nc(OCC3CCCN3C)nc3c2CCN(c2cccc4cccc(C)c24)C3)CC1CC#N
76.4

Try the compound CCNC(=O)CC1N=C(c2ccc(Cl)cc2)c2cc(OC)ccc2-n2c(C)nnc21 (stereo not given) + C=CC(=O)N1CCN(c2nc(OCC3CCCN3C)nc3c2CCN(c2cccc4cccc(C)c24)C3)CC1CC#N
79.1

Another compound to check: CCN1CCN(Cc2ccc(Nc3ncc(F)c(-c4cc(F)c5nc(C)n(C(C)C)c5c4)n3)nc2)CC1 + C=CC(=O)N1CCN(c2nc(OCC3CCCN3C)nc3c2CCN(c2cccc4cccc(C)c24)C3)CC1CC#N
111

// query: COc1cc(Nc2ncc3c(n2)-c2ccc(Cl)cc2C(c2c(F)cccc2OC)=NC3)ccc1C(=O)O + C=CC(=O)N1CCN(c2nc(OCC3CCCN3C)nc3c2CCN(c2cccc4cccc(C)c24)C3)CC1CC#N
86

Now the compound CC1(C)CCC(CN2CCN(c3ccc(C(=O)NS(=O)(=O)c4ccc(NCC5CCOCC5)c([N+](=O)[O-])c4)c(Oc4cnc5[nH]ccc5c4)c3)CC2)=C(c2ccc(Cl)cc2)C1 + C=CC(=O)N1CCN(c2nc(OCC3CCCN3C)nc3c2CCN(c2cccc4cccc(C)c24)C3)CC1CC#N
111

Likewise for Cn1nccc1Nc1nccc(-c2cc3c(s2)C(C)(C)N(CCN2CCOCC2)C3=O)n1 + C=CC(=O)N1CCN(c2nc(OCC3CCCN3C)nc3c2CCN(c2cccc4cccc(C)c24)C3)CC1CC#N ?
111

* * *

- System: HUVEC/MSC spheroids viability
- experiment_notes: Human HUVEC/MSC cell line growth inhibition [KRAS2];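 for viability, T/C: percent of DMSO vehicle control luminescence so 100% = untreated viability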
- particulars: second compound 0.316 µM; first compound 0.0003 µM; stronger effect = lower value
measure: viability, T/C (%)
Output spec: scalar in %, unitless text.

| molecule | readout_number |
| --- | --- |
| CC(=O)Nc1cccc(-n2c(=O)n(C3CC3)c(=O)c3c(Nc4ccc(I)cc4F)n(C)c(=O)c(C)c32)c1 + C=CC(=O)N1CCN(c2nc(=O)n(-c3c(C)ccnc3C(C)C)c3nc(-c4c(O)cccc4F)c(F)cc23)C(C)C1 | 157 |
| CC(=O)Nc1cccc(-n2c(=O)n(C3CC3)c(=O)c3c(Nc4ccc(I)cc4F)n(C)c(=O)c(C)c32)c1 + CC1OCC2(CCN(c3cnc(Sc4ccnc(N)c4Cl)c(N)n3)CC2)C1N | 95.2 |
| CC(=O)Nc1cccc(-n2c(=O)n(C3CC3)c(=O)c3c(Nc4ccc(I)cc4F)n(C)c(=O)c(C)c32)c1 + CNCc1ccccc1-c1csc(C(C)Nc2nc(C)nc3cc(OC)c(OC)cc23)c1 | 99.6 |

Let us examine a further case.
What value of viability, T/C on HUVEC/MSC spheroids viability does CC(=O)Nc1cccc(-n2c(=O)n(C3CC3)c(=O)c3c(Nc4ccc(I)cc4F)n(C)c(=O)c(C)c32)c1 + COc1cc2nc(C)nc(NC(C)c3cc(N)cc(C(F)(F)F)c3)c2cc1OC1CCOC1 have?
134

* * *

- Test system: HUVEC/MSC spheroids viability
- experiment_notes: Human HUVEC/MSC cell line growth inhibition [KRAS2];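 for viability, T/C: percent of DMSO vehicle control luminescence so 100% = untreated viability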
- particulars: second compound 0.0949 µM; first compound 0.0316 µM; stronger effect = lower value
Parameter: viability, T/C. Scope: all listed entries.
Give your result in % as a bare value.

| compound | viability, T/C, % |
| --- | --- |
| COc1cc(Nc2ncc3c(n2)-c2ccc(Cl)cc2C(c2c(F)cccc2OC)=NC3)ccc1C(=O)O + C=CC(=O)N1CCN(c2nc(OCC3CCCN3C)nc3c2CCN(c2cccc4cccc(C)c24)C3)CC1CC#N | 80.4 |
| CCN1CCN(Cc2ccc(Nc3ncc(F)c(-c4cc(F)c5nc(C)n(C(C)C)c5c4)n3)nc2)CC1 + C=CC(=O)N1CCN(c2nc(OCC3CCCN3C)nc3c2CCN(c2cccc4cccc(C)c24)C3)CC1CC#N | 84.1 |
| Cn1nccc1Nc1nccc(-c2cc3c(s2)C(C)(C)N(CCN2CCOCC2)C3=O)n1 + C=CC(=O)N1CCN(c2nc(OCC3CCCN3C)nc3c2CCN(c2cccc4cccc(C)c24)C3)CC1CC#N | 93.1 |
| CC1OCC2(CCN(c3cnc(Sc4ccnc(N)c4Cl)c(N)n3)CC2)C1N (stereo not given) + C=CC(=O)N1CCN(c2nc(OCC3CCCN3C)nc3c2CCN(c2cccc4cccc(C)c24)C3)CC1CC#N | 98.5 |

Turning to the following compound.
viability, T/C for O=C(c1cc(Cc2n[nH]c(=O)c3ccccc23)ccc1F)N1CCN(C(=O)C2CC2)CC1 + C=CC(=O)N1CCN(c2nc(OCC3CCCN3C)nc3c2CCN(c2cccc4cccc(C)c24)C3)CC1CC#N ?
91.8
